Each recorded value in this set is attributed to patent US10556907B2.

Target: human S1PR5 receptor (Homo sapiens, UniProt Q9H228)
Construct: host or cells: CHO-K1
Sequence (Q9H228 whole entry): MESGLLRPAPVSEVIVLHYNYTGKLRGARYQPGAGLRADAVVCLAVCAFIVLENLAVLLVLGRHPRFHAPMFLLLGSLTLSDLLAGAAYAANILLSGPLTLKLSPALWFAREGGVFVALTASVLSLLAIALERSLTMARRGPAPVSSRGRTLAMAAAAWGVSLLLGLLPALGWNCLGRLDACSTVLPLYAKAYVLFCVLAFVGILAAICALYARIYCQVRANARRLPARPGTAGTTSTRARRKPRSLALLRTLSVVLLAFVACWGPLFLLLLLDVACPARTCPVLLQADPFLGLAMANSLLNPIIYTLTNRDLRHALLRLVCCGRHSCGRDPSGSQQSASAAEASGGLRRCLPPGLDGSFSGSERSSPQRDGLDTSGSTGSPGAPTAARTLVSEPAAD
Test: Method 1: intracellular Ca2+ release (FLIPR, Calcium 5) in recombinant CHO-K1 cells
Type: cell-based
Conditions: agonist potency, determined with method 1 (symbols A-D); read-out: S1P5 EC50 range
RECORDED METRIC: EC50

Solved cases below.
COMPOUND	EC50
CC(CC(=O)O)N1CCc2nc(-c3ccc(OCc4ccccc4)cc3)ncc2C1 (stereo not drawn)	100 to 1000 nM
CC(CC(=O)O)CN1CCc2nc(-c3ccc(C(F)(F)Cc4cccc(Cl)c4)cc3)ncc2C1 (stereo not drawn)	1000 to 10000 nM
Cc1cc(COc2ccc(-c3ncc4c(n3)CCN(CCC(=O)O)C4)cc2)cc(OC(F)(F)F)c1	< 10 nM
CC(CC(=O)O)CN1CCc2nc(-c3ccc(OCc4ccc(Cl)cc4)cc3)ncc2C1 (single isomer, unassigned; (+)) [Compound 212]	< 10 nM
CCc1cccc(Cl)c1COc1ccc(-c2ncc3c(n2)CCN(CC(=O)O)C3)cc1	100 to 1000 nM
Cc1cc(-c2ccc3c(n2)CCN(CCC(=O)O)C3)ccc1OCc1ccc(F)cc1	10 to 100 nM
C[C@H](CCO)CN1CCc2nc(-c3ccc(OCc4ccc(Cl)cc4)cc3)ncc2C1	100 to 1000 nM
O=C(O)CC1(CN2CCc3nc(-c4ccc(OCc5ccc(Cl)cc5)cc4)ncc3C2)CC1 [Compound 286]	100 to 1000 nM

INPUT: Consider the compound C[C@H](CC(=O)O)CN1CCc2nc(-c3ccc(C(F)(F)Cc4ccc(Cl)cc4)cc3)ncc2C1 (single isomer, unassigned) and give its measured EC50.
OUTPUT: 100 to 1000 nM

INPUT: Consider the compound CC(CC(=O)O)CN1CCc2nc(-c3ccc(OCc4ccccc4Cl)cc3)ncc2C1 (stereo not drawn) and give its measured EC50.
OUTPUT: < 10 nM

INPUT: Consider the compound Cc1ccc(C(F)(F)F)c(COc2ccc(-c3ncc4c(n3)CCN(CC(C)CC(=O)O)C4)cc2)c1 (stereo not drawn) and give its measured EC50.
OUTPUT: 10 to 100 nM

INPUT: Consider the compound O=C(O)CCCN1Cc2cnc(-c3ccc(OCc4ccccc4)cc3)nc2C1 and give its measured EC50.
OUTPUT: 1000 to 10000 nM

INPUT: Consider the compound O=C(O)CCN1CCc2nc(-c3ccc(OCc4ccc(C(F)(F)F)cc4)cc3)c(F)cc2C1 and give its measured EC50.
OUTPUT: < 10 nM

INPUT: Consider the compound C[C@@H](CC(=O)O)CN1CCc2nc(-c3ccc(CCc4ccc(Cl)cc4)cc3)ncc2C1 and give its measured EC50.
OUTPUT: 10 to 100 nM

INPUT: Consider the compound CC(CN1CCc2nc(-c3ccc(OCc4cccc(Cl)c4)cc3)ncc2C1)C(=O)O (stereo not drawn) and give its measured EC50.
OUTPUT: < 10 nM

INPUT: Consider the compound O=C(O)CCCN1CCc2nc(C#Cc3ccccc3)ncc2C1 and give its measured EC50.
OUTPUT: 1000 to 10000 nM

INPUT: Consider the compound Cc1cc(-c2ncc3c(n2)CCN(CC(C)CC(=O)O)C3)ccc1OCc1cccc(C(F)(F)F)c1 (stereo not drawn) and give its measured EC50.
OUTPUT: 100 to 1000 nM

INPUT: Consider the compound Cc1ccc(COc2ccc(-c3ncc4c(n3)CCN(CC(C)CC(=O)O)C4)cc2C)cc1 (stereo not drawn) and give its measured EC50.
OUTPUT: 100 to 1000 nM

INPUT: Consider the compound O=C(O)CCN1CCc2nc(-c3ccc(OCc4ccccc4)cc3)ncc2C1 and give its measured EC50.
OUTPUT: 10 to 100 nM

INPUT: Consider the compound O=C(O)CCN1CCc2ncc(-c3ccc(OCc4ccc(Cl)cc4)cc3)nc2C1 and give its measured EC50.
OUTPUT: 1000 to 10000 nM

INPUT: Consider the compound CC(CC(=O)O)CN1CCc2nc(-c3ccc(OCc4cccc(Cl)c4)cc3)cnc2C1 (stereo not drawn) and give its measured EC50.
OUTPUT: < 10 nM

INPUT: Consider the compound CC(CC(=O)O)CN1CCc2nc(-c3ccc(OCc4ccc(F)cc4)cc3)ncc2C1 (stereo not drawn) and give its measured EC50.
OUTPUT: < 10 nM

INPUT: Consider the compound CC(CCC(=O)O)N1CCc2nc(-c3ccc(OCc4ccc(Cl)cc4)cc3)ncc2C1 (stereo not drawn) and give its measured EC50.
OUTPUT: < 10 nM

INPUT: Consider the compound CC(CCN1CCc2nc(-c3ccc(OCc4cccc(Cl)c4)cc3)c(F)cc2C1)C(=O)O (stereo not drawn) and give its measured EC50.
OUTPUT: < 10 nM

----------
Target: human S1PR5 receptor (Homo sapiens, UniProt Q9H228)
Construct: host or cells: CHO-K1
Experiment: Method 1: intracellular Ca2+ release (FLIPR, Calcium 5) in recombinant CHO-K1 cells
Type: cell-based
Conditions: agonist potency, determined with method 1 (symbols A-D); read-out: S1P5 EC50 range
RECORDED METRIC: EC50

MOLECULE	EC50
Cc1ccccc1COc1ccc(-c2ncc3c(n2)CCN(CC(C)CC(=O)O)C3)cc1 (stereo not shown)	< 0.01 µM
CC(CCC(=O)O)N1CCc2nc(-c3ccc(Cc4ccccc4)cc3)ncc2C1 (stereo not shown)	1 to 10 µM
CC(C)c1ccc(C#Cc2ncc3c(n2)CCN(C2CC(C(=O)O)C2)C3)cc1 (stereo not shown)	1 to 10 µM

INPUT: Record CC(CC(=O)O)N1CCc2nc(-c3ccc(OCc4ccc(F)c(F)c4)cc3)ncc2C1 (stereo not shown) : what is its EC50 with human S1PR5 receptor (Homo sapiens, UniProt Q9H228)?
OUTPUT: < 0.01 µM

INPUT: Record Cc1ccc(C(F)(F)F)c(COc2ccc(-c3ncc4c(n3)CCN(CCC(=O)O)C4)cc2)c1 : what is its EC50 with human S1PR5 receptor (Homo sapiens, UniProt Q9H228)?
OUTPUT: 0.1 to 1 µM

INPUT: Record CC(CN1CCc2nc(-c3ccc(OCc4cccc(F)c4)cc3)ccc2C1)C(=O)O (stereo not shown) : what is its EC50 with human S1PR5 receptor (Homo sapiens, UniProt Q9H228)?
OUTPUT: < 0.01 µM

INPUT: Record O=C(O)CCN1CCc2nc(-c3ccc(OCc4cccc(C(F)F)c4)cc3)ncc2C1 : what is its EC50 with human S1PR5 receptor (Homo sapiens, UniProt Q9H228)?
OUTPUT: < 0.01 µM

INPUT: Record O=C(O)C1(CN2CCc3nc(-c4ccc(Cc5ccccc5)cc4)ncc3C2)CC1 : what is its EC50 with human S1PR5 receptor (Homo sapiens, UniProt Q9H228)?
OUTPUT: 1 to 10 µM

INPUT: Record O=C(O)CCN1CCc2nc(-c3ccc(OCc4ccc(C(F)(F)F)cc4)cc3)ncc2C1 : what is its EC50 with human S1PR5 receptor (Homo sapiens, UniProt Q9H228)?
OUTPUT: < 0.01 µM

----------
Target: human S1PR5 receptor (Homo sapiens, UniProt Q9H228)
Construct: host or cells: CHO-K1
Experiment: Method 1: intracellular Ca2+ release (FLIPR, Calcium 5) in recombinant CHO-K1 cells
Format: cell-based
Settings: agonist potency, determined with method 1 (symbols A-D); read-out: S1P5 EC50 range
pEC50: −log10 of the molar value.
Measured pEC50, listed per entry for reference.

MOLECULE	REPORTED MEASUREMENT
C[C@@H](CC(=O)O)CN1CCc2nc(-c3ccc(OCc4ccc(Cl)cc4)cc3)ncc2C1=O	7.00 to 8.00
O=C(O)CC1(CN2CCc3nc(-c4ccc(OCc5cccc(Cl)c5)cc4)ncc3C2)CC1 [Compound 285]	6.00 to 7.00
Cc1cc(-c2ncc3c(n2)CCN(CC(C)CC(=O)O)C3)ccc1OCc1ccc(Cl)cc1 (stereo not shown)	7.00 to 8.00
CC(CC(=O)O)CN1CCc2nc(-c3ccc(OCc4cccc(F)c4F)cc3)ncc2C1 (stereo not shown)	> 8.00
O=C(O)CCN1CCc2nc(-c3ccc(OCc4ccc(Cl)cc4)cc3)c(F)cc2C1	> 8.00

INPUT: Consider the molecule O=C(O)C1CC(N2CCc3nc(C#Cc4cccc(Cl)c4)ccc3C2)C1 (stereo not shown) and give its measured pEC50.
OUTPUT: 5.00 to 6.00

INPUT: Consider the molecule CC(CC(=O)O)CN1CCc2nc(-c3ccc(OCc4ccc(C(C)(C)C)cc4)cc3F)ncc2C1 (stereo not shown) and give its measured pEC50.
OUTPUT: 7.00 to 8.00

INPUT: Consider the molecule CC(C(=O)O)N1CCc2nc(-c3ccc(OCc4ccc(Cl)cc4)cc3)ncc2C1 (stereo not shown) and give its measured pEC50.
OUTPUT: 6.00 to 7.00

INPUT: Consider the molecule O=C(O)CCN1CCc2nc(-c3ccc(OCc4ccc(C(F)F)cc4)cc3)ncc2C1 and give its measured pEC50.
OUTPUT: > 8.00

INPUT: Consider the molecule CC(CC(=O)O)CN1CCc2nc(-c3ccc(/C=C/c4ccc(Cl)cc4F)cc3)ncc2C1 (stereo not shown) and give its measured pEC50.
OUTPUT: 7.00 to 8.00
